Target under test: LTD4 /E4 receptors (Cavia porcellus, UniProt Q2NNR5)
Construct: membrane fractions, containing the LTD4 /E4 receptors, are prepared from guinea-pig lung parenchyma
Sequence (Q2NNR5 1-340): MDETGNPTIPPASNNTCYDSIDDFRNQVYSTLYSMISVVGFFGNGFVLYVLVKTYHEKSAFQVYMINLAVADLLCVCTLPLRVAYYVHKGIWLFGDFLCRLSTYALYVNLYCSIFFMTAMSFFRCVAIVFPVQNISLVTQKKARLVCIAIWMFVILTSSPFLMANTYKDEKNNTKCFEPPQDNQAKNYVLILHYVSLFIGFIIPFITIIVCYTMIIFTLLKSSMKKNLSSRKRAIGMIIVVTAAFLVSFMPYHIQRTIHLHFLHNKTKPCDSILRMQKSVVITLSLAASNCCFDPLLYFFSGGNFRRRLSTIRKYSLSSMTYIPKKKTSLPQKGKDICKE
Measurement notes: receptor-ligand binding assay with 3H-LTD4 on guinea-pig lung parenchyma membrane fractions
Condition parameters: 1nM 3H-LTD4, 30 minutes at 22° C., Ki calculated from IC50 by the Cheng-Prusoff equation
Procedure: According to this procedure, membrane fractions, containing the LTD4 /E4 receptors, are prepared from guinea-pig lung parenchyma and incubated for 30 minutes at 22° C. with 1nM ^3 H-LTD4 in the absence or presence of tested antagonist. Specific binding, determined under conditions that prevent enzymatic metabolism of ^3 H-LTD4, is the net result of total ^3 H-LTD4 binding minus nonspecific binding determined in the presence of 1-2000 fold excess unlabelled LTD^4. […]
Observation type: Ki (nM)
Number in nM, nothing else.

Incoming: Short answer please: Ki, LTD4 /E4 receptors (Cavia porcellus, UniProt Q2NNR5), entry CCCN1CCC(Cc2ccc3c(c2)c(Cc2ccc(C(=O)NS(=O)(=O)c4ccccc4C)cc2OC)cn3CCC)C1=O (stereo not shown) [Example 1]
Outgoing: 1
